- Procedure details: Kinetic solubility in aqueous buffer pH 7.4 by total chemiluminescent nitrogen determination (Analiza)
- Condition notes: aqueous buffer, pH 7.4, aqueous buffer, kinetic from dmso stock
Observation type: solubility kinetic (µM)

- CC(C)c1ccc(/C=N/NC(=O)c2ccc(O)cc2)cc1: 215
- Cc1c(COc2cc(OCc3cccc(C#N)c3)c(CN3C[C@H](O)C[C@@H]3C(=O)O)cc2Cl)cccc1-c1ccc2c(c1)OCCO2: 2.1
- Oc1cc(CNC(=S)/C=C/c2cc(O)c(O)c(Br)c2)cc(O)c1O: 79.7
- Cc1ccc(F)c(NC(=O)Nc2ccc(-c3cccc4[nH]nc(N)c34)cc2)c1: 0.6
- CCOC(=O)c1cccc(CNc2ccc(N(C)C(=O)Nc3ccccc3)cc2)c1: 3.7

====

- Test system: BV2 (mouse microglia) cell line
- Procedure details: pHrodo-myelin phagocytosis/cell viability high content imaging assay: viability (cell count, nuclear area, nuclear intensity)
- Condition notes: BV2 cells, 10 uM compound, 48 hours treatment
Observation type: 3. Nuclear DNA Intensity (% control)

* Cc1c(COc2cc(OCc3cccc(C#N)c3)c(CN3C[C@H](O)C[C@@H]3C(=O)O)cc2Cl)cccc1-c1ccc2c(c1)OCCO2 [UNC10302972A] | 113.8
* O=C(NC1CC1)C(=O)C(Cc1ccccc1)NC(=O)[C@H]1CCC(=O)N1Cc1ccccc1 (some centres unmarked) [UNC10302676A] | 102.8
* CCCC[C@@H](C=O)NC(=O)[C@H](CC(C)C)NC(=O)OCc1ccccc1 [UNC10302674A] | 106.3
* C[C@H]1Oc2cc(cnc2N)-c2c(nn(C)c2C#N)CN(C)C(=O)c2ccc(F)cc21 [UNC10244898A] | 110.1
* COc1ccc2nc([S+]([O-])Cc3ncc(C)c(OC)c3C)nc-2[nH]1 (centres unmarked) [UNC10303106A] | 103.4
* CNc1nc(C)nc(N[C@H]2CCC[C@@H](C(=O)NCc3ccc(C#N)cc3C(F)(F)F)C2)n1 [UNC10302679A] | 102.1
* Cc1cc2c(cc1-c1cc(/C=C\C(=O)O)ccc1O)C(C)(C)CCC2(C)C [UNC10302903A] | 96.7
* CN1c2ccc([N+](=O)[O-])cc2N=C(c2ccc(C(=O)O)cc2)c2cc3c(cc21)C(C)(C)CCC3(C)C [UNC10303107A] | 64.7

====

Here the recorded 3. Nuclear DNA Intensity (% control) is given for each entry.
- Tested on: BV2 (mouse microglia) cell line
- Procedure details: pHrodo-myelin phagocytosis/cell viability high content imaging assay: viability (cell count, nuclear area, nuclear intensity)
- Condition notes: BV2 cells, 10 uM compound, 48 hours treatment
Observation type: 3. Nuclear DNA Intensity (% control)

- CC(C)Nc1cc(-c2c[nH]c(C(=O)N[C@H](CO)c3cccc(Cl)c3)c2)c(Cl)cn1 [UNC10302869A]: 96.6
- O=c1ncn2nc(Sc3ccc(F)cc3F)ccc2c1-c1c(Cl)cccc1Cl [UNC10303093A]: 110.5
- CN(C)CC[C@H](CSc1ccccc1)Nc1ccc(S(=O)(=O)NC(=O)c2ccc(N3CCN(Cc4ccccc4-c4ccc(Cl)cc4)CC3)cc2)cc1[N+](=O)[O-] [UNC10302898A]: 106.0
- O=C(O)c1cc2nc(-c3ccc(Cl)cc3)cc(C(F)(F)F)n2n1 [UNC10302881A]: 97.1
- O=C1CCc2cc(OCCCCc3nnnn3C3CCCCC3)ccc2N1 [UNC10100278A]: 104.4
- O=C(Nc1c[nH]nc1-c1nc2cc(CN3CCOCC3)ccc2[nH]1)NC1CC1 [UNC10126643A]: 29.9
- Nc1nc(Nc2ccc3c(c2)CC[C@@H](N2CCCC2)CC3)nn1-c1cc2c(nn1)-c1ccccc1CCC2 [UNC10220544A]: 55.2
- CCN(CC)c1ccc(/C=N/NC(=O)c2ccc(O)cc2)cc1 [UNC10302868A]: 100.1
- CC(=O)N1CCN(c2ccc(OC[C@H]3CO[C@](Cn4ccnc4)(c4ccc(Cl)cc4Cl)O3)cc2)CC1 [UNC10100724A]: 104.7
- CC(=O)NCC(=O)N1[C@@H]2CC[C@H]1c1ccc(Nc3ncc(C(F)(F)F)c(NC4CCC4)n3)cc12 [UNC10302896A]: 18.8
- CNC(=O)c1c(F)cccc1Nc1nc(Nc2cc3c(cc2OC)CCN3C(=O)CN(C)C)nc2[nH]ccc12 [UNC10302864A]: 102.8
- OC(c1cc(C23CC4CC(CC(C4)C2)C3)nc2c(Cl)cc(Cl)cc12)C1CCCCN1 (stereo not shown) [UNC10302897A]: 99.1
- CN(C)C/C=C/C(=O)Nc1cc2c(Nc3ccc(F)c(Cl)c3)ncnc2cc1O[C@H]1CCOC1 [UNC10302894A]: 89.4
- Nc1ncnc2c1nc(Sc1ccc(Cl)cc1)n2[C@@H]1O[C@@H]2COP(=O)([O-])O[C@H]2[C@H]1O.[Na+] [UNC10302890A]: 98.4
- Cc1cc(C)nc(NC(=S)N2CCN(c3ccc(C(F)(F)F)cn3)CC2)c1 [UNC10302906A]: 105.6
- Cc1cnc(Nc2ccc(F)cc2Cl)nc1-c1c[nH]c(C(=O)N[C@H](CO)c2cccc(Cl)c2)c1 [UNC10302866A]: 113.9
